Provenance of the data: PubChem BioAssay AID2057

Listed below: inhibition values for each entry.
- SYSTEM UNDER TEST: Induced myeloid leukemia cell differentiation protein Mcl-1 (Homo sapiens)
- TEST SUMMARY: MCL1-BIM peptide interaction disruptors – biochemical, fluorescence polarization, primary screen (AID 2057);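 also: 0% = DMSO wells and 100% = unlabeled Bim-BH3 peptide control; higher means more loss of mP so more displacement of Bim peptide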
- MEASUREMENT SETUP: GST-MCL1 / FITC-Bim-BH3 fluorescence polarization; at 10.9 µM; active compounds read high
Among all 320,000 compounds or so, about 2,100 (0.66%) were called active. What follows is part of a selection rich in actives, with near analogues and random picks from the rest.
Your answer should be a plain number; it is taken to be in %.

Below, each entry is followed by its recorded inhibition result.
MOLECULE	PROPERTY MEASURED	RESULT UNIT	NUMERIC READOUT
CN(C(=O)COC(=O)c1cc(-c2ccco2)nc2ccccc12)C1CCS(=O)(=O)C1 (centres undefined)	inhibition	%	105
CCOC(=O)c1cc2n(c1N)-c1ccccc1C2=O	inhibition	%	153
COc1ccc(/C(N)=N/OC(=O)CCCc2ccccc2)cc1	inhibition	%	-1.09
CCN(CC)S(=O)(=O)c1ccc2[nH]c(=O)cc(C(=O)N(C)C3CCS(=O)(=O)C3)c2c1 (centres undefined)	inhibition	%	7.4
O=C(CCNC(=O)C1CCN(S(=O)(=O)c2ccccc2)CC1)NC1CC1	inhibition	%	1.06
Cc1ccc(C(=O)NC(=S)Nc2ccccc2C)cc1	inhibition	%	4.14
CC(C)OC(=O)CN1C(=O)C(=O)c2ccccc21	inhibition	%	3.82
COC(=O)c1cc(OCC(=O)NC2CCCc3ccccc32)cc(C(=O)OC)c1 (centres undefined)	inhibition	%	40.6

Q: Give inhibition for `O=C(CSc1ncccn1)N1CCCC1`
Ans: 9.67

Q: Give inhibition for `CC(=O)Nc1ccc(S(=O)(=O)NC2Cc3ccccc3C2)cc1`
Ans: 1.26

Q: Give inhibition for `COCCN(CCOC)c1nc(N)c2c(N)nc3c(c2c1C#N)CC(=O)N3Cc1ccc(Cl)cc1`
Ans: 56.7

Q: Give inhibition for `COc1cc2c(cc1OC)C(=O)NCC(C)(C)O2`
Ans: 5.06

Q: Give inhibition for `COC1=C(N2CCOCC2)C(=O)c2ccccc2C1=O`
Ans: 6.69

Q: Give inhibition for `COc1ccc(CCNC(=O)CSCc2ccc(Br)cc2)cc1OC`
Ans: 13.2

Q: Give inhibition for `CN1C(=O)/C(=C/c2ccco2)SC1=Nc1cccc(C(=O)O)c1`
Ans: 44.5

Q: Give inhibition for `CC/C(C)=N/Nc1nc2sc3c(c2c(=O)[nH]1)CC(C)(C)OC3`
Ans: 85
